System: UO-31 renal
protocol.description: NCI tumour cell line growth inhibition, 48 h
assay.readout: TGI (µM)
Give your result in µM as a bare value.

CCOC(=O)c1ccc2c(c1)[n+](=O)c(C(=O)C1CCCS1)c(C(F)(F)F)n2[O-] (centres undefined) ... 0.303
CNc1ccc(/C=C2\C=Cc3ccccc32)cc1 ... 30.5

Next, consider the following compound.
Exam item: Provide TGI value for the following compound: `COC(=O)[C@@H](C)C[C@H](Cc1ccccc1)NC(=O)c1cccc([C@@H](C[C@H](C(C)C)N(C)C(=O)[C@@H](NC(=O)[C@H]2CCCCN2C)C2CC2)OC(C)=O)n1`
Marked response: 33.3

====

As shown below, each of these compounds has a reported TGI value.
Test system: UO-31 renal
protocol.description: NCI tumour cell line growth inhibition, 48 h
*1 amine or outer side, *2 acyl side, *3 side chain or, on linkers, in order; H or OH if unused. Where a SMILES comes first, the peptide text is derived from it. [ ]: non-standard residue; d: D form. ξ: configuration not given here. Ile(3ξ) = CCC(C)[C@H](N)C(=O)O; X33 = C=CCC(O[*:1])C(=O)[*:2]; NMeV = CN[C@H](C(=O)O)C(C)C; NMeA = CN[C@@H](C)C(=O)O; βAla = NCCC(=O)O

C[n+]1c2ccccc2n2c3ccccc3c(NCCCN3CCOCC3)c(C#N)c21 ... 15.3 µM
COc1ccc(/C=C/C(=O)C(C)(C)C)cc1OC ... > 100 µM
CO[C@@H]1C[C@H]2[C@@H]3CC[C@H]([C@H](C)CO)[C@@]3(C)CC[C@@H]2[C@@]2(C)CC[C@H]3C[C@]312 ... > 100 µM

Exam item: Provide TGI value for the following compound: `CC1(F)C=CC(=O)C=C1`
Marked response: > 100 µM

Exam item: Provide TGI value for the following compound: `NC(=S)N/N=C/c1c[nH]c2ccccc12`
Marked response: > 100 µM

Exam item: Provide TGI value for the following compound: C=CCC1OC(=O)CCNC(=O)[C@H](C)N(C)C(=O)[C@H](C(C)C)N(C)C(=O)[C@H](C(C)CC)NC(=O)[C@@H]2CCCN2C1=O (stereo partly specified) (cyclo([Ile(3ξ)][NMeV][NMeA][βAla][X33]P))
Marked response: 99.6 µM

====

System: MDA-MB-231 breast
protocol.description: NCI tumour cell line growth inhibition, 48 h; in the data active = GI50 below about 0.43 µM; inactive = the rest
Reply using exactly one outcome from active, inactive

Answered cases to consult:
Cn1c(=O)n(CCCO)c(=O)c2c1nc(Oc1cccc(OC(F)(F)F)c1)n2Cc1ccc(Cl)cc1 ... inactive
COc1cc(/C=C/C(=O)c2ccc(Nc3nc(Nc4ccc(F)cc4)nc(Nc4ccc(Cl)cc4)n3)cc2)cc(OC)c1OC ... inactive

Exam item: Give the logged outcome of this assay for the following compound: `O=C(/C=C/c1cc2ccccc2[nH]c1=O)c1ccc(Cl)cc1`
Marked response: inactive

Exam item: Give the logged outcome of this assay for the following compound: `CCOC(=O)Cc1csc(NC(=O)COC(=O)c2ccc(N)cc2)n1`
Marked response: inactive

Exam item: Give the logged outcome of this assay for the following compound: `O=C1C(Cl)=C(Nc2cccc(O)c2)C(=O)N1CCc1ccccc1`
Marked response: inactive

Exam item: Give the logged outcome of this assay for the following compound: `O=C(Nc1cccc(-n2ccc3c(NC(=O)c4ccccc4)nccc32)c1)Nc1ccc(Cl)c(C(F)(F)F)c1`
Marked response: active

Exam item: Give the logged outcome of this assay for the following compound: COC(=O)C1=C(OC(=O)c2ccccc2)C(C(=O)OC)[C@]2(O)[C@@H](C(=O)OC)C1CC(c1ccccc1OC)[C@@H]2C(=O)OC (stereo partly drawn)
Marked response: inactive

Exam item: Give the logged outcome of this assay for the following compound: `Nc1n[n+](=O)c2ccccc2n1O`
Marked response: inactive

Exam item: Give the logged outcome of this assay for the following compound: `COc1cc(C(=O)c2c(-c3ccccc3)oc3c(OC)cccc23)cc(OC)c1O`
Marked response: inactive

Exam item: Give the logged outcome of this assay for the following compound: `N#Cc1c(-c2ccc(Cl)cc2)csc1NC(=O)Nc1ccc(Cl)c(C(F)(F)F)c1`
Marked response: inactive

Exam item: Give the logged outcome of this assay for the following compound: CNC(=O)C(CCc1ccccc1)NC(=O)C(CC(=O)NO)CC(C)C (stereo not drawn)
Marked response: inactive

Exam item: Give the logged outcome of this assay for the following compound: `COc1ccc2c(c1)oc1c(C)c3c(c(C)c12)C(=O)N(N)C3=O`
Marked response: inactive

Exam item: Give the logged outcome of this assay for the following compound: `Brc1ccc(SCN(CSc2ccc(Br)cc2)Cc2ccccc2)cc1`
Marked response: inactive

====

As shown below, each of these compounds has a reported TGI value.
Test system: HS 578T breast
protocol.description: NCI tumour cell line growth inhibition, 48 h

C=CCSc1nc2c(N)ncnc2n1C1OC(CO)C(O)C1O (centres undefined) ... > 100 µM
O=c1[nH][nH]c(=O)n1Cc1cccc(Cn2c(=O)[nH][nH]c2=O)c1 ... > 100 µM
CCOC(=O)NC(Nc1ccc(OC(F)(F)F)cc1)(C(F)(F)F)C(F)(F)F ... > 100 µM
CC1(C)CCC2(CC1)N[C@@H](C(=O)N[C@@H]1CC[C@@H](C(N)=O)OC1)[C@H](c1ccnc(Cl)c1F)[C@]21C(=O)Nc2cc(Cl)ccc21 ... 10.4 µM
CC(CCOc1c2ccoc2cc2oc(=O)ccc12)C1=CC(=O)C(C)(C)O1 (centres undefined) ... > 100 µM

Exam item: Provide TGI value for the following compound: `CC1(F)C=CC(=O)C=C1`
Marked response: > 100 µM

Exam item: Provide TGI value for the following compound: CCC(O)CC1OC2(CCC1C)CC1OC(=O)/C=C\C(C)(O)C(O)C(C)C(O)C(OC3CC(OC)C(O)C(C)O3)C(O)C(C)(O)CCC/C=C/C3CC(C)COC3(O)CC(O2)C1C (centres undefined)
Marked response: 38.2 µM

Exam item: Provide TGI value for the following compound: `NCCc1c[nH]c2ccc(OC(=O)C(=O)O)cc12`
Marked response: > 100 µM

Exam item: Provide TGI value for the following compound: `C=C1C(=O)O[C@H]2[C@H]1CC/C(CNC(=O)c1cccc3ccccc13)=C\CC[C@@]1(C)O[C@@H]21`
Marked response: 44.4 µM

====

As shown below, each of these compounds has a reported TGI value.
Test system: OVCAR-3 ovarian
protocol.description: NCI tumour cell line growth inhibition, 48 h

In the examples that follow, each entry is paired with its recorded TGI.
COc1ccc(-c2c(-c3cc(OC)c(OC)c(OC)c3)nc3sc(C4CC4)nn23)cc1OC ... > 100 µM
N#Cc1c2c(c(Cl)n3c1nc1ccccc13)CCCC2 ... 20.1 µM

Exam item: Provide OVCAR-3 ovarian TGI reading for `CCOC(=O)c1csc(CCCCCCc2nc(C(=O)OCC)cs2)n1` .
Marked response: > 100 µM

Exam item: Provide OVCAR-3 ovarian TGI reading for `COc1ccc2c(c1)C(N)=C(c1ccccc1OC)C2=O` .
Marked response: > 100 µM

====

System: SNB-75 CNS
protocol.description: NCI tumour cell line growth inhibition, 48 h
As shown below, each of these compounds has a reported TGI value.

In the examples that follow, each entry is paired with its recorded TGI.
COC(=O)CCC1=NOC(CC2CC(CCC(=O)OC)=NO2)C1 (stereo unspecified) ... > 100 µM
CC1=NCC[N+]1(CCc1ccccc1)Cc1ccccc1 (stereo unspecified) ... > 100 µM
CN(C)c1ccc(Nc2ncnc3ccccc23)cc1 ... > 100 µM
COc1ccc2c(c1)[C@@H]1c3cc(OC)c(OC)cc3CCN1CCC2 ... > 100 µM
C=CCSc1nc2c(N)ncnc2n1C1OC(CO)C(O)C1O (stereo unspecified) ... > 100 µM

Exam item: Provide SNB-75 CNS TGI reading for COC(=O)C1Cc2c([nH]c3ccccc23)C(C2CCCCC2)N1 (stereo unspecified) .
Marked response: > 100 µM

Exam item: Provide SNB-75 CNS TGI reading for `COc1cc(C(=O)c2c(-c3ccccc3)oc3c(OC)cccc23)cc(OC)c1O` .
Marked response: 0.605 µM

Exam item: Provide SNB-75 CNS TGI reading for `Cc1ccc(/C(=N/NS(=O)(=O)c2ccc([N+](=O)[O-])cc2)Sc2cc(Cl)c(C)cc2S(N)(=O)=O)cc1` .
Marked response: > 100 µM

Exam item: Provide SNB-75 CNS TGI reading for `O=C(NO)C(=O)Nc1cc(Cl)ccc1Cl` .
Marked response: > 100 µM

Exam item: Provide SNB-75 CNS TGI reading for `O=C1c2scc(-c3ccccc3)c2-n2cccc21` .
Marked response: 27.2 µM

Exam item: Provide SNB-75 CNS TGI reading for COc1ccc(N2C(=O)C3c4[nH]c5ccccc5c4C4CCC(c5ccccc5)CC4C3C2=O)cc1 (stereo unspecified) .
Marked response: 19.1 µM
